SYSTEM NAME: hCB1 (Homo sapiens, UniProt P21554)
Sequence (P21554 whole entry): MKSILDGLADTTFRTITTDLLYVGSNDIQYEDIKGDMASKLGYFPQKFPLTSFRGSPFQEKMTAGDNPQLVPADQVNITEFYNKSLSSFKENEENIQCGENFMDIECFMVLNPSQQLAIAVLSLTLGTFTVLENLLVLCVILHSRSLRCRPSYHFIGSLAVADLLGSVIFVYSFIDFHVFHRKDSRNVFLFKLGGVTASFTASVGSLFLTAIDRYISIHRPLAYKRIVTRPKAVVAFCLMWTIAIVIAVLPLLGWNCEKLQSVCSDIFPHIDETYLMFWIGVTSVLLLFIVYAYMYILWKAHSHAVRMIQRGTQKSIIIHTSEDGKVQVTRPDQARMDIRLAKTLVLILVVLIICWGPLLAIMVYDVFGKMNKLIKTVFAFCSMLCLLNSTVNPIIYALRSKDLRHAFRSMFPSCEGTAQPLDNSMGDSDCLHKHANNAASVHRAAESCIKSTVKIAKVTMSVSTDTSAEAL
EXPERIMENT SUMMARY: bioSensAll ebBRET signaling profiling, hCB1
Assay type: cell-based
Parameters: host or cells: HEK293SL cells, transient PEI transfection
RUN PARAMETERS: Log [Compound] (M) -7.14267; single replicate values, FigS6a
Label rule, in plain words: Gi1 hCB1 of 2 and up is True, under 2 is False.

Answer whether Gi1 hCB1 of COc1cccc(C(NC(=O)c2cc(C)n(-c3cccc(C(F)(F)F)c3)n2)c2ccco2)c1 (centres unmarked) is greater than or equal to 2.
True

Answer whether Gi1 hCB1 of COC(=O)C(NC(=O)c1cc(C)n(-c2cccc(F)c2)n1)c1cccs1 (centres unmarked) is greater than or equal to 2.
True

Answer whether Gi1 hCB1 of Cc1nn(Cc2ccc(Cl)cc2)c(C)c1C(=O)OCC1CSc2ccccc2O1 (centres unmarked) is greater than or equal to 2.
False

Answer whether Gi1 hCB1 of `COC(=O)[C@@H]1[C@@H]2CCC[C@@H]2CN1C(=O)c1cc(C)n(-c2cccc(C(F)(F)F)c2)n1` is greater than or equal to 2.
True

Answer whether Gi1 hCB1 of `Cc1cc(C(=O)N2CC3(CCC3)[C@H]2[C@H]2CCCO2)nn1-c1cccc(C(F)(F)F)c1` is greater than or equal to 2.
True

Answer whether Gi1 hCB1 of `Cn1nc(-c2nnc(C(C)(C)Oc3ccc(C(F)(F)F)cc3)o2)c2ccccc2c1=O` is greater than or equal to 2.
True

Answer whether Gi1 hCB1 of Cc1c(C(=O)OCC2CSc3ccccc3O2)cnn1Cc1ccccc1 (centres unmarked) is greater than or equal to 2.
False

Answer whether Gi1 hCB1 of CC(=O)C(c1cccs1)N(C)C(=O)c1cc(C)n(-c2cccc(C(F)(F)F)c2)n1 (centres unmarked) is greater than or equal to 2.
True

Answer whether Gi1 hCB1 of `COC(=O)[C@@H]1[C@@H]2CC[C@@H]2CN1C(=O)c1cc(C)n(-c2cccc(C(F)(F)F)c2)n1` is greater than or equal to 2.
True

Answer whether Gi1 hCB1 of `Cn1nc(-c2nnc(C(C)(C)Oc3ccc(Cl)cc3)o2)c2ccccc2c1=O` is greater than or equal to 2.
False

Answer whether Gi1 hCB1 of Cc1cc(C(=O)NC(c2ccccc2)c2ccco2)nn1-c1cccc(C(F)(F)F)c1 (centres unmarked) is greater than or equal to 2.
True

Answer whether Gi1 hCB1 of `Cc1cc(C(=O)N2CC3(CCC3)[C@H]2[C@@H]2CCCO2)nn1-c1cccc(C(F)(F)F)c1` is greater than or equal to 2.
True

Answer whether Gi1 hCB1 of COC(=O)[C@@H]1[C@@H]2CCC[C@@H]2CN1C(=O)c1cc(C)n(-c2cccc(Cl)c2)n1 (racemic) is greater than or equal to 2.
True

Answer whether Gi1 hCB1 of Cc1cc(C(=O)N2CC3(CCC3)[C@@H]2[C@H]2CCCO2)nn1-c1cccc(C(F)(F)F)c1 (single isomer, unassigned) is greater than or equal to 2.
False

Answer whether Gi1 hCB1 of `Brc1cc2c(cc1Cc1noc(-c3cnn(CC4CC4)c3)n1)OCO2` is greater than or equal to 2.
False

Answer whether Gi1 hCB1 of COC(=O)C(NC(=O)c1cc(C)n(-c2cccc(C(F)(F)F)c2)n1)c1cccs1 (centres unmarked) is greater than or equal to 2.
True

Answer whether Gi1 hCB1 of `Cc1cc(C(=O)NC(c2ccco2)c2ccco2)nn1-c1cccc(C(F)(F)F)c1` is greater than or equal to 2.
True

###

Record form. Attribute: GoB hCB1. Fill in for each entry.
SYSTEM NAME: hCB1 (Homo sapiens, UniProt P21554)
EXPERIMENT SUMMARY: bioSensAll ebBRET signaling profiling, hCB1
Format: cell-based
Set-up: host or cells: HEK293SL cells, transient PEI transfection
RUN PARAMETERS: Log [Compound] (M) -6.72585; single replicate values, FigS6a

Item under review: CC(=O)C(c1cccs1)N(C)C(=O)c1cc(C)n(-c2cccc(C(F)(F)F)c2)n1 (centres unmarked) . Reported GoB hCB1?
6.7333

Item under review: COc1cccc(C(NC(=O)c2cc(C)n(-c3cccc(C(F)(F)F)c3)n2)c2ccco2)c1 (centres unmarked) . Reported GoB hCB1?
-0.5859

Item under review: `Cc1nc(CC2CC2)oc1-c1nc(Cc2cc3c(cc2Br)OCO3)no1` . Reported GoB hCB1?
-9.694

Item under review: `Cc1cc(C(=O)N2CC3(CCC3)[C@@H]2[C@@H]2CCCO2)nn1-c1cccc(C(F)(F)F)c1` . Reported GoB hCB1?
1.033

Item under review: Cc1cc(C(=O)NC(c2ccccc2)c2ccco2)nn1-c1cccc(C#N)c1 (centres unmarked) . Reported GoB hCB1?
22.6665

Item under review: Cc1cc(C(=O)N2CC3(CCC3)[C@@H]2[C@H]2CCCO2)nn1-c1cccc(C(F)(F)F)c1 (single isomer, unassigned) . Reported GoB hCB1?
4.665

Item under review: Cc1nn(Cc2ccc(Cl)cc2)c(C)c1C(=O)OCC1CSc2ccccc2O1 (centres unmarked) . Reported GoB hCB1?
-6.013

Item under review: `Cn1nc(-c2nnc(C(C)(C)Oc3ccc(C(F)(F)F)cc3)o2)c2ccccc2c1=O` . Reported GoB hCB1?
29.2133

Item under review: COC(=O)[C@@H]1[C@@H]2CCC[C@@H]2CN1C(=O)c1cc(C)n(-c2cccc(Cl)c2)n1 (racemic) . Reported GoB hCB1?
11.4989

Item under review: Cc1c(C(=O)OCC2CSc3ccccc3O2)cnn1Cc1ccccc1 (centres unmarked) . Reported GoB hCB1?
-3.895

Item under review: COC(=O)C(NC(=O)c1cc(C)n(-c2cccc(C(F)(F)F)c2)n1)c1cccs1 (centres unmarked) . Reported GoB hCB1?
94.8877

Item under review: `Cc1cc(C(=O)N(C)C(c2ccco2)c2ccco2)nn1-c1cccc(C(F)(F)F)c1` . Reported GoB hCB1?
-9.883

Item under review: Cc1cc(C(=O)N(C)C(c2ccccc2)c2ccco2)nn1-c1cccc(C(F)(F)F)c1 (centres unmarked) . Reported GoB hCB1?
-7.186

Item under review: `Cc1cc(C(=O)N2CC3(CCC3)[C@H]2[C@H]2CCCO2)nn1-c1cccc(C(F)(F)F)c1` . Reported GoB hCB1?
12.2902

###

Record form. Attribute: Barr2+GRK2 hCB1 response. Fill in for each entry.
SYSTEM NAME: hCB1 (Homo sapiens)
EXPERIMENT SUMMARY: bioSensAll ebBRET signaling profiling, hCB1
Format: cell-based
Design: host or cells: HEK293SL cells, transient PEI transfection
RUN PARAMETERS: Barr2+GRK2 biosensor; Log [Compound] (M) -6.72585
Quick one: just the number, no unit, thanks!

Item under review: Cn1nc(-c2nnc(C(C)(C)Oc3ccc(Cl)cc3)o2)c2ccccc2c1=O [‘0450] . Reported Barr2+GRK2 hCB1 response?
-46.9202

Item under review: Cn1nc(-c2nnc(C(C)(C)Oc3ccc(C(F)(F)F)cc3)o2)c2ccccc2c1=O [‘2153] . Reported Barr2+GRK2 hCB1 response?
-23.6278

Item under review: Cc1nn(Cc2ccc(Cl)cc2)c(C)c1C(=O)OCC1CSc2ccccc2O1 (stereo not drawn) [‘5463] . Reported Barr2+GRK2 hCB1 response?
-53.9398

Item under review: Cc1c(C(=O)OCC2CSc3ccccc3O2)cnn1Cc1ccccc1 (stereo not drawn) [‘7800] . Reported Barr2+GRK2 hCB1 response?
-54.5779

Item under review: Brc1cc2c(cc1Cc1noc(-c3cnn(CC4CC4)c3)n1)OCO2 [‘5424] . Reported Barr2+GRK2 hCB1 response?
-48.8346

Item under review: Cc1nc(CC2CC2)oc1-c1nc(Cc2cc3c(cc2Br)OCO3)no1 [‘7019] . Reported Barr2+GRK2 hCB1 response?
12.1083

###

Record form. Attribute: GoB hCB1. Fill in for each entry.
SYSTEM NAME: hCB1 (Homo sapiens)
EXPERIMENT SUMMARY: bioSensAll ebBRET signaling profiling, hCB1
Type: cell-based
Parameters: host or cells: HEK293SL cells, transient PEI transfection
RUN PARAMETERS: Log [Compound] (M) cell empty; single replicate values, FigS6a
Quick one: just the number, no unit, thanks!

Identify the measured GoB hCB1 of `COC(=O)[C@](C)(NC(=O)c1cc(C)n(-c2cccc(C(F)(F)F)c2)n1)c1cccs1` for hCB1 (Homo sapiens).
-5.1625

Identify the measured GoB hCB1 of `Cn1nc(-c2nnc(C(C)(C)Oc3ccc(Cl)cc3)o2)c2ccccc2c1=O` for hCB1 (Homo sapiens).
-4.173

Identify the measured GoB hCB1 of `Cc1nc(CC2CC2)oc1-c1nc(Cc2cc3c(cc2Br)OCO3)no1` for hCB1 (Homo sapiens).
-6.482

Identify the measured GoB hCB1 of `Brc1cc2c(cc1Cc1noc(-c3cnn(CC4CC4)c3)n1)OCO2` for hCB1 (Homo sapiens).
-5.458

Identify the measured GoB hCB1 of Cc1c(C(=O)OCC2CSc3ccccc3O2)cnn1Cc1ccccc1 (stereo not shown) for hCB1 (Homo sapiens).
-5.406

Identify the measured GoB hCB1 of Cc1nn(Cc2ccc(Cl)cc2)c(C)c1C(=O)OCC1CSc2ccccc2O1 (stereo not shown) for hCB1 (Homo sapiens).
-2.437

Identify the measured GoB hCB1 of `Cn1nc(-c2nnc(C(C)(C)Oc3ccc(C(F)(F)F)cc3)o2)c2ccccc2c1=O` for hCB1 (Homo sapiens).
-1.829
